Experiment: qHTS Assay for Lipid Storage Modulators (AID 1519)
Conditions: Drosophila S3 cells, BODIPY lipid droplet/cell ratio, laser cytometry; measured here: cell count channel max response; cells loaded with oleic acid
Description: NIH Molecular Libraries Probe Production Centers Network [MLPCN] NIH Chemical Genomics Center [NCGC] Assay Submitter (PI): Beller, Mathias; Max-Planck-Institut fur Biophysikalische Chemie […] We dispensed 4 uL of cells at 1.25 x 10^6 cells/mL into LoBase Aurora COC 1,536-well plates (black walled, clear bottom) with a bottle-valve solenoid-based dispenser (Aurora) to obtain 5,000 cells/well. […] The ratio of the total intensity in PMT channel 1 over total intensity of channel 3 was also calculated. […]
Inconclusive results are not listed.
reported_metric: max response
Dear colleague, please send the value followed by its unit.

Solved entries:
{"compound": "O=C1C[C@@H](c2ccc(O)cc2)Oc2cc(O)cc(O)c21", "reported_metric": "max response", "result": "-18.3%"}
{"compound": "CN1C[C@H](CNC(=O)OCc2ccccc2)C[C@H]2c3cccc4c3c(cn4C)C[C@@H]21", "reported_metric": "max response", "result": "-21.4%"}
{"compound": "CCCN[C@@H]1CCc2c(OC)cccc2[C@@H]1C", "reported_metric": "max response", "result": "-20.9%"}
{"compound": "CC(C(=O)O)c1ccc(-c2ccccc2)c(F)c1 (stereo unspecified)", "reported_metric": "max response", "result": "15.4%"}
{"compound": "CC1CCCC(=O)CCC/C=C/c2cc(O)cc(O)c2C(=O)O1 (stereo unspecified)", "reported_metric": "max response", "result": "9.42%"}
{"compound": "C[C@](N)(CCP(=O)(O)O)C(=O)O", "reported_metric": "max response", "result": "-23.4%"}
{"compound": "CCN1C[C@]2(C)CC[C@H](O)[C@@]34C5C[C@@H]6[C@@H](OC)C[C@@](O)(C5[C@H]6O)[C@@H](CC23)[C@@H]14 (stereo partly specified)", "reported_metric": "max response", "result": "-11.5%"}
{"compound": "Cc1ccc(C[N+](C)(C)C)o1", "reported_metric": "max response", "result": "20.9%"}

Q) Can you look up the measured max response of CCN(CC)/[N+]([O-])=N/O for me?
A) -15%

Q) How about this compound: CC[C@]1(C2=NCCN2)Cc2ccccc2O1
A) 4.62%

Q) How about this compound: N[C@H](Cc1o[nH]c(=O)c1Cl)C(=O)O
A) 4.55%
